- System: MDA-MB-468 breast
- Protocol summary: NCI-60 one-dose screen, 48 h (100 = growth as untreated, 0 = no growth, -100 = all killed)
- Measurement conditions: 10 µM unless noted
This is part of a sample that, as a whole, favours compounds with a hit. Of some 83,000 tested, about 20% had one in any assay.

>  <Smiles structure>
CNC(=O)c1cc(Oc2ccc3c(c2)sc2nc(-c4ccc(N(C)C)cc4)cn23)ccn1

>  <Experimental target>
MDA-MB-468 breast

>  <Units of measure>
%

>  <growth>
36.5

$$$$
>  <Smiles structure>
CCOC(=O)c1nc2c3ccccc3ccn2c1C(=O)OCC

>  <Experimental target>
MDA-MB-468 breast

>  <Units of measure>
%

>  <growth>
109

$$$$
>  <Smiles structure>
O=C(Nc1ccccc1)P(=O)(O)c1ccccc1

>  <Experimental target>
MDA-MB-468 breast

>  <Units of measure>
%

>  <growth>
94.3

$$$$

###

- Test system: MDA-MB-468 breast
- Protocol summary: NCI-60 one-dose screen, 48 h
- Measurement conditions: 10 µM unless noted
About 83,000 compounds went through this panel and 20% of them were active in at least one assay; those are over-represented in the sample as a whole. The source made the active and inactive calls. Rule for the calls: active = growth percent below 10; inactive = the rest.
Labels: active, inactive

>  <Compound>
COc1ccc(Cl)c([N+](=O)[O-])c1

>  <Experimental target>
MDA-MB-468 breast

>  <Assigned label>
inactive

$$$$
>  <Compound>
Cc1ccc(C)c(-n2c(-c3ccc(Br)cc3)csc2=NC(=O)c2ccccc2F)c1

>  <Experimental target>
MDA-MB-468 breast

>  <Assigned label>
inactive

$$$$
>  <Compound>
Cn1cc(-c2nc(N)nnc2-c2c[nH]c3ccc(Br)cc23)c2cc(F)ccc21

>  <Experimental target>
MDA-MB-468 breast

>  <Assigned label>
inactive

$$$$
>  <Compound>
CCOC(=O)[C@@H](C)C[C@H](Cc1ccccc1)NC(=O)c1csc([C@@H](C[C@H](C(C)C)N(C)C(=O)[C@@H](NC(=O)[C@H]2C[C@H](O[Si](C)(C)C(C)(C)C)CCN2C)C(C)C)OC(C)=O)n1

>  <Experimental target>
MDA-MB-468 breast

>  <Assigned label>
active

$$$$
>  <Compound>
COc1ccc(-c2nc3ccc4[nH]ncc4c3c3c2CCCC3)cc1B(O)O

>  <Experimental target>
MDA-MB-468 breast

>  <Assigned label>
inactive

$$$$
>  <Compound>
COc1ccc(NC(=S)NNc2ccc(-c3ccc(OC)c(OC)c3)nn2)cc1

>  <Experimental target>
MDA-MB-468 breast

>  <Assigned label>
inactive

$$$$
>  <Compound>
COc1ccc(-c2cc(-c3cc(OC)c(OC)c(OC)c3)nc(N3CCOCC3)c2C#N)cc1

>  <Experimental target>
MDA-MB-468 breast

>  <Assigned label>
inactive

$$$$
>  <Compound>
COc1cccc(/C=C/c2c(C(=O)O)cccc2[N+](=O)[O-])c1OC

>  <Experimental target>
MDA-MB-468 breast

>  <Assigned label>
inactive

$$$$
>  <Compound>
c1ccc(-c2nnc(Nc3ccc4c(c3)OCCO4)o2)c(NCc2ccncc2)c1

>  <Experimental target>
MDA-MB-468 breast

>  <Assigned label>
active

$$$$
>  <Compound>
COc1ccc(Nn2c(SCC(=O)Nc3nc(-c4ccc(Cl)cc4)cs3)nc(C)c2C)cc1

>  <Experimental target>
MDA-MB-468 breast

>  <Assigned label>
inactive

$$$$
>  <Compound>
OC1(c2ccccc2)c2ccccc2N(c2ccccc2)c2ccc(Cl)cc21 (stereo unspecified)

>  <Experimental target>
MDA-MB-468 breast

>  <Assigned label>
active

$$$$
>  <Compound>
Fc1ccc(-c2nn(-c3ccccc3)cc2-c2nc3ccccc3o2)cc1

>  <Experimental target>
MDA-MB-468 breast

>  <Assigned label>
active

$$$$
>  <Compound>
COc1cccc(-c2cc(-c3cccc(NS(C)(=O)=O)c3)nc(N)c2C#N)c1O

>  <Experimental target>
MDA-MB-468 breast

>  <Assigned label>
active

$$$$
>  <Compound>
Clc1ccc(-c2n[nH]c3c2Cc2ccccc2-3)cc1Cl

>  <Experimental target>
MDA-MB-468 breast

>  <Assigned label>
inactive

$$$$
>  <Compound>
C=CCn1cc(-c2nc3ccccc3s2)c2cc(-c3ccc4c5c(cccc35)C(=O)N(CCN3CCNCC3)C4=O)ccc21

>  <Experimental target>
MDA-MB-468 breast

>  <Assigned label>
inactive

$$$$
>  <Compound>
N#C/C(=N\Nc1ccc(F)cc1)C(=O)Nc1cc(-c2ccccc2)nn1-c1ccccc1

>  <Experimental target>
MDA-MB-468 breast

>  <Assigned label>
active

$$$$
>  <Compound>
CS(=O)(=O)c1ccc(-c2[nH]c3ccc(F)cc3c2/C=N/O)cc1

>  <Experimental target>
MDA-MB-468 breast

>  <Assigned label>
inactive

$$$$
>  <Compound>
O=c1cc(Cl)nc2ccccn12

>  <Experimental target>
MDA-MB-468 breast

>  <Assigned label>
inactive

$$$$
>  <Compound>
Cc1cccc(Cl)c1N

>  <Experimental target>
MDA-MB-468 breast

>  <Assigned label>
inactive

$$$$
>  <Compound>
Cc1cccc(NC(=O)Nc2ccc(-c3ccc4c(c3)NC(=O)/C4=C\c3ccc[nH]3)cc2)c1

>  <Experimental target>
MDA-MB-468 breast

>  <Assigned label>
active

$$$$
>  <Compound>
C=CC(=O)Nc1cccc(-c2nc(SC)nc(NCc3ccccc3)c2C#N)c1

>  <Experimental target>
MDA-MB-468 breast

>  <Assigned label>
inactive

$$$$
>  <Compound>
CC(C)(C)c1nc2c(s1)c1nc(N)ncc1c1ccc(NS(=O)(=O)c3c(F)cccc3F)c(F)c12

>  <Experimental target>
MDA-MB-468 breast

>  <Assigned label>
inactive

$$$$
>  <Compound>
O=C(CSc1nnc2sc(Nc3cccc(Cl)c3)nn12)c1ccc(F)cc1

>  <Experimental target>
MDA-MB-468 breast

>  <Assigned label>
inactive

$$$$
>  <Compound>
O=C(N[C@@H]1CCCc2ccccc21)[C@H](CCC(=O)N1CCN(C2CCCCC2)CC1)N1C(=O)[C@@H](N2C(=O)OC[C@@H]2c2ccccc2)[C@H]1/C=C/c1ccccc1

>  <Experimental target>
MDA-MB-468 breast

>  <Assigned label>
active

$$$$
>  <Compound>
C[C@@H]1CC[C@H]2[C@@H](C)C(O)O[C@@H]3O[C@]4(C)CC[C@@H]1[C@]32OO4 (stereo partly specified)

>  <Experimental target>
MDA-MB-468 breast

>  <Assigned label>
inactive

$$$$
>  <Compound>
[2H]c1cc2c(c([2H])c1F)/C(=C/c1[nH]c(C)c(C(=O)NCCN(CC)CC)c1C)C(=O)N2

>  <Experimental target>
MDA-MB-468 breast

>  <Assigned label>
inactive

$$$$
>  <Compound>
CCOC(=O)c1c(C)n(-c2ccc(Cl)cc2)c2ccc(OC(=O)/C=C/c3ccccc3)cc12

>  <Experimental target>
MDA-MB-468 breast

>  <Assigned label>
inactive

$$$$
>  <Compound>
CCCCN(CCCC)CC(C)(C)C(O)c1ccc(OC)c2ccccc12 (stereo unspecified)

>  <Experimental target>
MDA-MB-468 breast

>  <Assigned label>
inactive

$$$$
>  <Compound>
NC(CSSCC(N)C(=O)O)C(=O)O (stereo unspecified)

>  <Experimental target>
MDA-MB-468 breast

>  <Assigned label>
active

$$$$
>  <Compound>
Cc1cc(C=O)c(C)c2c1[nH]c1ccccc12

>  <Experimental target>
MDA-MB-468 breast

>  <Assigned label>
inactive

$$$$
>  <Compound>
CCOC(=O)c1ccc(Nc2ccnc(SCC(=O)c3ccc(C#N)cc3)n2)cc1

>  <Experimental target>
MDA-MB-468 breast

>  <Assigned label>
inactive

$$$$
